Collected shrunken log2 fold change values appear next to each entry.
System: Escherichia coli TOP10
Assay: shrunken log2 fold change of peptide-encoding DNA abundance (4.5 h post-induction vs induction); higher = less antimicrobial activity (less host growth inhibition)
Details: time post-induction: 4.5 h; library: site-saturation at positions 5, 18, 19, 20

RRIRNRPPRLPRPRPRPIEKPRP: -0.0498

Noted for RRIRQRPPRLPRPRPRPQDYPRP : its shrunken log2 fold change reads -0.685

Noted for RRIRQRPPRLPRPRPRPHNMPRP : its shrunken log2 fold change reads -0.283

Noted for RRIRHRPPRLPRPRPRPRGNPRP : its shrunken log2 fold change reads 0.174

Noted for RRIRNRPPRLPRPRPRPKPAPRP : its shrunken log2 fold change reads 0.601

Noted for RRIRGRPPRLPRPRPRPSHNPRP : its shrunken log2 fold change reads -0.189

Noted for RRIRQRPPRLPRPRPRPKNSPRP : its shrunken log2 fold change reads -0.536

Noted for RRIRDRPPRLPRPRPRPDQLPRP : its shrunken log2 fold change reads 0.0963

Noted for RRIRHRPPRLPRPRPRPMQNPRP : its shrunken log2 fold change reads -0.0144

Noted for RRIRQRPPRLPRPRPRPPCWPRP : its shrunken log2 fold change reads 0.102

----------
Collected shrunken log2 fold change values appear next to each entry.
Test system: Escherichia coli TOP10
Assay: shrunken log2 fold change of peptide-encoding DNA abundance (4.5 h post-induction vs induction); higher = less antimicrobial activity (less host growth inhibition)
Conditions: time post-induction: 4.5 h; library: site-saturation at positions 5, 18, 19, 20

Solved cases below.
RRIRKRPPRLPRPRPRPWSHPRP: 0.0601
RRIRVRPPRLPRPRPRPGDAPRP: 0.0792
RRIRVRPPRLPRPRPRPCIAPRP: -0.298
RRIRRRPPRLPRPRPRPCMFPRP: -0.0745
RRIRMRPPRLPRPRPRPLCHPRP: 0.061
RRIRMRPPRLPRPRPRPMMGPRP: 0.0255
RRIRKRPPRLPRPRPRPYKCPRP: -0.168
RRIRIRPPRLPRPRPRPRWHPRP: 0.139
RRIRCRPPRLPRPRPRPHRKPRP: -0.0176
RRIRARPPRLPRPRPRPAAHPRP: 0.478

Noted for RRIRYRPPRLPRPRPRPVRAPRP : its shrunken log2 fold change reads 0.774

Noted for RRIRPRPPRLPRPRPRPTQGPRP : its shrunken log2 fold change reads 0.753

Noted for RRIRGRPPRLPRPRPRPSFCPRP : its shrunken log2 fold change reads 0.348

Noted for RRIRKRPPRLPRPRPRPKQYPRP : its shrunken log2 fold change reads -0.222

Noted for RRIRWRPPRLPRPRPRPDKFPRP : its shrunken log2 fold change reads -0.427

Noted for RRIRHRPPRLPRPRPRPWCNPRP : its shrunken log2 fold change reads -0.417

Noted for RRIRQRPPRLPRPRPRPRQKPRP : its shrunken log2 fold change reads 0.257

Noted for RRIRWRPPRLPRPRPRPVDPPRP : its shrunken log2 fold change reads 0.158

Noted for RRIRERPPRLPRPRPRPDYLPRP : its shrunken log2 fold change reads -0.612

Noted for RRIRSRPPRLPRPRPRPHAEPRP : its shrunken log2 fold change reads 0.156

Noted for RRIRGRPPRLPRPRPRPIMYPRP : its shrunken log2 fold change reads 0.0639

Noted for RRIRNRPPRLPRPRPRPWEAPRP : its shrunken log2 fold change reads -0.173

Noted for RRIRRRPPRLPRPRPRPDYMPRP : its shrunken log2 fold change reads -0.384

Noted for RRIRSRPPRLPRPRPRPDCGPRP : its shrunken log2 fold change reads 0.0769

Noted for RRIRRRPPRLPRPRPRPYPLPRP : its shrunken log2 fold change reads 0.015

Noted for RRIRARPPRLPRPRPRPWTKPRP : its shrunken log2 fold change reads 0.167

Noted for RRIRDRPPRLPRPRPRPKGRPRP : its shrunken log2 fold change reads 0.218

Noted for RRIRARPPRLPRPRPRPAHLPRP : its shrunken log2 fold change reads 0.271

Noted for RRIRNRPPRLPRPRPRPIWFPRP : its shrunken log2 fold change reads 0.205

Noted for RRIRQRPPRLPRPRPRPGFVPRP : its shrunken log2 fold change reads 0.217

Noted for RRIRPRPPRLPRPRPRPLMTPRP : its shrunken log2 fold change reads -0.0836

Noted for RRIRIRPPRLPRPRPRPDAVPRP : its shrunken log2 fold change reads 0.0396

----------
Tested on: Escherichia coli TOP10
Assay: shrunken log2 fold change of peptide-encoding DNA abundance (4.5 h post-induction vs induction); higher = less antimicrobial activity (less host growth inhibition)
Conditions: time post-induction: 4.5 h; library: site-saturation at positions 5, 18, 19, 20
experimental readout: shrunken log2 fold change
Number only, please.

Solved cases below.
RRIRWRPPRLPRPRPRPQVIPRP: -0.127
RRIRYRPPRLPRPRPRPMWMPRP: -0.00149
RRIRKRPPRLPRPRPRPNYGPRP: -0.226
RRIRCRPPRLPRPRPRPTFNPRP: -0.525
RRIRGRPPRLPRPRPRPPYEPRP: 0.0264

Noted for RRIRPRPPRLPRPRPRPMSGPRP : its shrunken log2 fold change reads 0.115

Noted for RRIRRRPPRLPRPRPRPWVKPRP : its shrunken log2 fold change reads 0.0557

Noted for RRIRRRPPRLPRPRPRPHYCPRP : its shrunken log2 fold change reads -0.356

Noted for RRIRMRPPRLPRPRPRPEIKPRP : its shrunken log2 fold change reads 3.3

Noted for RRIRWRPPRLPRPRPRPCCKPRP : its shrunken log2 fold change reads 0.0725

Noted for RRIRLRPPRLPRPRPRPGTYPRP : its shrunken log2 fold change reads 0.386

Noted for RRIRTRPPRLPRPRPRPHEPPRP : its shrunken log2 fold change reads -0.197

Noted for RRIRPRPPRLPRPRPRPEVRPRP : its shrunken log2 fold change reads -0.0106

Noted for RRIRRRPPRLPRPRPRPPTVPRP : its shrunken log2 fold change reads 0.24

Noted for RRIRCRPPRLPRPRPRPSMVPRP : its shrunken log2 fold change reads -0.312

----------
Test system: Escherichia coli TOP10
Test: shrunken log2 fold change of peptide-encoding DNA abundance (4.5 h post-induction vs induction); higher = less antimicrobial activity (less host growth inhibition)
Details: time post-induction: 4.5 h; library: site-saturation at positions 5, 18, 19, 20
Binary call on shrunken log2 fold change: Met from 0.07 upward, Not met beneath that.

**Query** Is reported shrunken log2 fold change greater than or equal to 0.07 here: RRIRCRPPRLPRPRPRPMLPPRP
**Result** Not met

**Query** Is reported shrunken log2 fold change greater than or equal to 0.07 here: RRIRQRPPRLPRPRPRPNMRPRP
**Result** Met

**Query** Is reported shrunken log2 fold change greater than or equal to 0.07 here: RRIRERPPRLPRPRPRPVREPRP
**Result** Met

**Query** Is reported shrunken log2 fold change greater than or equal to 0.07 here: RRIRGRPPRLPRPRPRPGLRPRP
**Result** Met

**Query** Is reported shrunken log2 fold change greater than or equal to 0.07 here: RRIRTRPPRLPRPRPRPKCCPRP
**Result** Not met

**Query** Is reported shrunken log2 fold change greater than or equal to 0.07 here: RRIRVRPPRLPRPRPRPYDCPRP
**Result** Not met

**Query** Is reported shrunken log2 fold change greater than or equal to 0.07 here: RRIRIRPPRLPRPRPRPPMQPRP
**Result** Not met

----------
System: Escherichia coli TOP10
Assay: shrunken log2 fold change of peptide-encoding DNA abundance (4.5 h post-induction vs induction); higher = less antimicrobial activity (less host growth inhibition)
Conditions: time post-induction: 4.5 h; library: site-saturation at positions 5, 18, 19, 20
Collected shrunken log2 fold change values appear next to each entry.
Number only, please.

Solved cases below.
RRIRDRPPRLPRPRPRPTAWPRP: 1.51
RRIRARPPRLPRPRPRPIYYPRP: -0.182
RRIRNRPPRLPRPRPRPSRGPRP: 0.513
RRIRMRPPRLPRPRPRPVGSPRP: 0.99
RRIRTRPPRLPRPRPRPMPYPRP: -0.159
RRIRYRPPRLPRPRPRPFWFPRP: -0.264

Noted for RRIRVRPPRLPRPRPRPNWQPRP : its shrunken log2 fold change reads 0.108

Noted for RRIRARPPRLPRPRPRPPAMPRP : its shrunken log2 fold change reads 0.394

Noted for RRIRLRPPRLPRPRPRPAGQPRP : its shrunken log2 fold change reads -0.0451

Noted for RRIRGRPPRLPRPRPRPNQFPRP : its shrunken log2 fold change reads 0.0521

----------
Test system: Escherichia coli TOP10;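 note: peptides expressed intracellularly from a pBAD plasmid library in pooled LB shake-flask culture, induced with 0.3% L-arabinose, DNA abundance read by NGS, three biological replicates, DESeq2 with apeglm shrinkage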
Experiment: shrunken log2 fold change of peptide-encoding DNA abundance (4.5 h post-induction vs induction); higher = less antimicrobial activity (less host growth inhibition)
Conditions: time post-induction: 4.5 h; library: site-saturation at positions 5, 18, 19, 20
Each entry falls into one class according to its shrunken log2 fold change; the ranges are low value: < -0.05; medium value: ≥ -0.05 and < 0.1; high value: ≥ 0.1

Consider the following illustrative entries.
RRIRPRPPRLPRPRPRPPWMPRP: high value
RRIRSRPPRLPRPRPRPLIYPRP: low value
RRIRSRPPRLPRPRPRPRMGPRP: high value
RRIRTRPPRLPRPRPRPLNTPRP: low value
RRIRHRPPRLPRPRPRPDPVPRP: high value
RRIRARPPRLPRPRPRPGHDPRP: high value

**Query** // return the class label for RRIRSRPPRLPRPRPRPARMPRP
**Result** low value

**Query** // return the class label for RRIRVRPPRLPRPRPRPSMIPRP
**Result** low value

**Query** // return the class label for RRIRPRPPRLPRPRPRPGGIPRP
**Result** high value

**Query** // return the class label for RRIRARPPRLPRPRPRPWMDPRP
**Result** high value

**Query** // return the class label for RRIRTRPPRLPRPRPRPLIAPRP
**Result** high value

**Query** // return the class label for RRIRRRPPRLPRPRPRPWHSPRP
**Result** low value

**Query** // return the class label for RRIRHRPPRLPRPRPRPFMVPRP
**Result** low value

**Query** // return the class label for RRIRPRPPRLPRPRPRPVTMPRP
**Result** low value

**Query** // return the class label for RRIRQRPPRLPRPRPRPHAPPRP
**Result** medium value

**Query** // return the class label for RRIRPRPPRLPRPRPRPTWNPRP
**Result** medium value

**Query** // return the class label for RRIRDRPPRLPRPRPRPHGPPRP
**Result** medium value

**Query** // return the class label for RRIRKRPPRLPRPRPRPSFKPRP
**Result** medium value

**Query** // return the class label for RRIRSRPPRLPRPRPRPATMPRP
**Result** medium value
